Target: T1, human CD154, soluble antigen (human, UniProt P29965 116-261, limits assumed)
T1 construct: KinExA uses 'soluble antigen'; also called CD40 ligand; CD40L
T1 sequence (looked up): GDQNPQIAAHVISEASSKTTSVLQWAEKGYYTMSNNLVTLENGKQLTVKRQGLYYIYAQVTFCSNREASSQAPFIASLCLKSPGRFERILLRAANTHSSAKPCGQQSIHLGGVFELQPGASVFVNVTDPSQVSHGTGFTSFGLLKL
Assay: KinExA solution-phase equilibrium, Fab with soluble antigen
measured_endpoint: Kd (nM)
Numbers only; they are read as nM.

Field: example entries. Status: answers known.
{"columns": ["binder", "measured_value"],
 "data": [
  ["5c8 Fab Mutant #7 (light chain Q27E) (Fab, V domains shown, also called Gln27Glu) VH: QVQLVQSGAEVVKPGASVKLSCKASGYIFTSYYMYWVKQAPGQGLEWIGEINPSNGDTNFNEKFKSKATLTVDKSASTAYMELSSLRSEDTAVYYCTRSDGRNDMDSWGQGTLVTVSS VL: DIVLTQSPATLSVSPGERATISCRASERVSSSTYSYMHWYQQKPGQPPKLLIKYASNLESGVPARFSGSGSGTDFTLTISSVEPEDFATYYCQHSWEIPPTFGGGTKLEIK", 0.081],
  ["5c8 Fab Mutant #19 (heavy S54N; light S26D/Q27E) (Fab, V domains shown) VH: QVQLVQSGAEVVKPGASVKLSCKASGYIFTSYYMYWVKQAPGQGLEWIGEINPNNGDTNFNEKFKSKATLTVDKSASTAYMELSSLRSEDTAVYYCTRSDGRNDMDSWGQGTLVTVSS VL: DIVLTQSPATLSVSPGERATISCRADERVSSSTYSYMHWYQQKPGQPPKLLIKYASNLESGVPARFSGSGSGTDFTLTISSVEPEDFATYYCQHSWEIPPTFGGGTKLEIK", 0.065],
  ["5c8 Fab Mutant #4 (heavy chain S54N) (Fab, V domains shown) VH: QVQLVQSGAEVVKPGASVKLSCKASGYIFTSYYMYWVKQAPGQGLEWIGEINPNNGDTNFNEKFKSKATLTVDKSASTAYMELSSLRSEDTAVYYCTRSDGRNDMDSWGQGTLVTVSS VL: DIVLTQSPATLSVSPGERATISCRASQRVSSSTYSYMHWYQQKPGQPPKLLIKYASNLESGVPARFSGSGSGTDFTLTISSVEPEDFATYYCQHSWEIPPTFGGGTKLEIK", 0.298]
]}

// below: Kd requested for another binder
-- ask Can you share its Kd? I mean this binder: 5c8 Fab Mutant #6 (light chain S26D) (Fab, V domains shown, also called Ser26Asp) VH: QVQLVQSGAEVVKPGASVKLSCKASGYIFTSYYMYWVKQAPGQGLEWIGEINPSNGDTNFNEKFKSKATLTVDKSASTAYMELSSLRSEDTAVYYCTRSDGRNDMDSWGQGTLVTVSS VL: DIVLTQSPATLSVSPGERATISCRADQRVSSSTYSYMHWYQQKPGQPPKLLIKYASNLESGVPARFSGSGSGTDFTLTISSVEPEDFATYYCQHSWEIPPTFGGGTKLEIK
-- reply 0.142
